Biological target: Tyk2 (Homo sapiens, UniProt P29597)
Sequence (P29597 whole entry): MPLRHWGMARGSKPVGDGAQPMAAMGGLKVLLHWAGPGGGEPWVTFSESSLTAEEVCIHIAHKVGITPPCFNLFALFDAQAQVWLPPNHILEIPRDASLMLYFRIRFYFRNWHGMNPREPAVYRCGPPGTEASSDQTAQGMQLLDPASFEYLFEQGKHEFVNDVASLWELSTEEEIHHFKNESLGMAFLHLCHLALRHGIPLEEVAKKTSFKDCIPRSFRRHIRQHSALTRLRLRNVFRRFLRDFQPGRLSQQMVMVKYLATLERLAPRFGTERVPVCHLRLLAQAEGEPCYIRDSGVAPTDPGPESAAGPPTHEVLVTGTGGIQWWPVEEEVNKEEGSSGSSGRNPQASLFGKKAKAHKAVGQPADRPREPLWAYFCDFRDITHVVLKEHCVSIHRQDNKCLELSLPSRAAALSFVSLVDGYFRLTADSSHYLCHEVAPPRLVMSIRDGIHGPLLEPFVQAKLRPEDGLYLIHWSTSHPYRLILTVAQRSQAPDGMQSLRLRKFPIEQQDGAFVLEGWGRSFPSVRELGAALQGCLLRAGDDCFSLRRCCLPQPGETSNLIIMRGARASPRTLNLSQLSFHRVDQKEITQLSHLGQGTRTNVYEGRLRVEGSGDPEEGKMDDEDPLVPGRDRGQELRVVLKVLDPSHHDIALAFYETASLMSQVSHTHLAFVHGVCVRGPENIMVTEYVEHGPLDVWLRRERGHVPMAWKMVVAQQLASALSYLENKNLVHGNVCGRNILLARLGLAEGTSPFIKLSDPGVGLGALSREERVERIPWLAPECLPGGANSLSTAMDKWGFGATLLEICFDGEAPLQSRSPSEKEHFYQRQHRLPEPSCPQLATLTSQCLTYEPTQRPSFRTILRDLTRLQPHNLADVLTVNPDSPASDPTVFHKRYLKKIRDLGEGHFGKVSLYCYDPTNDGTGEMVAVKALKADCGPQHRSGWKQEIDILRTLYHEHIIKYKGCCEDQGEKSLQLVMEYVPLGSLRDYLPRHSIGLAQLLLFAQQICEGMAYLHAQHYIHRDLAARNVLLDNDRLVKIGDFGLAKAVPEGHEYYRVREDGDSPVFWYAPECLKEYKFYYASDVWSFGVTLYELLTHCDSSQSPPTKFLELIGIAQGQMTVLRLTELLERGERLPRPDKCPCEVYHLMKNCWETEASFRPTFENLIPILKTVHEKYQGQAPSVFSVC
Assay: Inhibition of JAK kinase activity, EZ Reader microfluidic phosphorylation of peptide substrate: Tyk2
Assay type: biochemical
Details: Tyk2 kinase 1 nM; highest final concentration 10 μM, 1:3 serial dilution, 8 points, duplicates
metricName: IC50

Task: Give me measured IC50, please, for this molecule: C=CCS(=O)(=O)N1CC(CC#N)(n2cc(-c3ccnc(Nc4cnn(C)c4)n3)cn2)C1 [TDM-180800]
Result: 0.1 to 1 µM

Task: Give me measured IC50, please, for this molecule: Cn1cc(Nc2nccc(-c3ccn(C4(CC#N)CN(C(=O)C5CC5(F)F)C4)n3)n2)cn1 (stereo not shown) [TDM-180859]
Result: 0.1 to 1 µM

Task: Give me measured IC50, please, for this molecule: Cn1cc(Nc2nccc(-c3ccn(C4(CC#N)CN(C(=O)CC#N)C4)n3)n2)cn1 [TDM-180861]
Result: 1 to 10 µM

Task: Give me measured IC50, please, for this molecule: Cn1cc(Nc2nccc(-c3ccc(C4(CC#N)CN(C(=O)C5CC5)C4)cc3)n2)cn1 [TDM-180880]
Result: 1 to 10 µM

----------
Would you kindly list IC50 for each of these compounds?
Target: JAK1 (Homo sapiens, UniProt P23458)
Sequence (P23458 whole entry): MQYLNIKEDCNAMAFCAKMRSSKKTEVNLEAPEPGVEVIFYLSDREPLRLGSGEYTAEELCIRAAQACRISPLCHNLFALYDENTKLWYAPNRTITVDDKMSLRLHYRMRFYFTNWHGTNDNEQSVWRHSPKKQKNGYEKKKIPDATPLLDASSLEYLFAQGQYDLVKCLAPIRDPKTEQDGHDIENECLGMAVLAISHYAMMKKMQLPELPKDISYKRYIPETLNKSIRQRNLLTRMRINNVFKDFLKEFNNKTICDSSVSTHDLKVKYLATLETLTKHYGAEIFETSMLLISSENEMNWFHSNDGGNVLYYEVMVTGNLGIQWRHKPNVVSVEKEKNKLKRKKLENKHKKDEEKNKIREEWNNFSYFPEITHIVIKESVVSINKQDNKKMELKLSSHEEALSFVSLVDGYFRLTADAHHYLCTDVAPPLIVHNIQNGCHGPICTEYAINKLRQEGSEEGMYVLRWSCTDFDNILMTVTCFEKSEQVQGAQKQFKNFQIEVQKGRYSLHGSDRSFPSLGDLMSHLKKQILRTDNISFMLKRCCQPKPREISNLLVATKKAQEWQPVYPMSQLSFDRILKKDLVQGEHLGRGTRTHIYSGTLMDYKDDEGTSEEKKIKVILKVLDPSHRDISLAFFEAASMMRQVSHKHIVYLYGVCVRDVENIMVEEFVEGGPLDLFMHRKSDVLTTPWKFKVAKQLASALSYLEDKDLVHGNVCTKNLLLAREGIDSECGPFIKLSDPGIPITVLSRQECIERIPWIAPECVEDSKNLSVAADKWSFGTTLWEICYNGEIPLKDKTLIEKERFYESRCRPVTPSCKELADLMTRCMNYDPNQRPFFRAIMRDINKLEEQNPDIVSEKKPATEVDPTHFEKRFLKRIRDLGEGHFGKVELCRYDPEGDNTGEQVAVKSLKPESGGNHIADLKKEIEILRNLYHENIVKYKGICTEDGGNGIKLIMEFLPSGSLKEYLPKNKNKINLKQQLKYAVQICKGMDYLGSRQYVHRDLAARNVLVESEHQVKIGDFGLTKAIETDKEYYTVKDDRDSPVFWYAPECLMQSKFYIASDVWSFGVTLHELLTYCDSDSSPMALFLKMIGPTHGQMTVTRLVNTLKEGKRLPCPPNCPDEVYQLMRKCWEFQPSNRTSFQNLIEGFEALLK
Assay: Inhibition of JAK kinase activity, EZ Reader microfluidic phosphorylation of peptide substrate: JAK1
Assay type: biochemical
Details: JAK1 kinase 20 nM; highest final concentration 10 μM, 1:3 serial dilution, 8 points, duplicates

Task: Give me measured IC50, please, for this compound: "Cn1cc(Nc2nccc(-c3ccn(C4(CC#N)CN(S(=O)(=O)C5CCOCC5)C4)c3)n2)cn1"
Result: 0.1 to 1 µM

Task: Give me measured IC50, please, for this compound: "Cn1cc(Nc2nccc(-c3cnn(C4(CC#N)CN(S(=O)(=O)C5CCOCC5)C4)c3)n2)cn1"
Result: 0.1 to 1 µM

Task: Give me measured IC50, please, for this compound: "Cn1cc(Nc2cc(-c3cnn(C4CN(C(=O)C5CC5)C4)c3)ccn2)cn1"
Result: ≥ 10 µM

Task: Give me measured IC50, please, for this compound: "Cn1cc(Nc2nccc(-c3ccn(C4(CC#N)CN(S(=O)(=O)CC(F)(F)F)C4)n3)n2)cn1"
Result: 1 to 10 µM

Task: Give me measured IC50, please, for this compound: "CC(C)S(=O)(=O)N1CC(CC#N)(n2cc(-c3ccnc(Nc4cnn(C)c4)n3)cn2)C1"
Result: 0.1 to 1 µM

Task: Give me measured IC50, please, for this compound: Cn1cc(Nc2nccc(-c3cnn(C4CCN(C(=O)C5CC5(F)F)C4)c3)n2)cn1 (stereo not drawn)
Result: ≥ 10 µM

Task: Give me measured IC50, please, for this compound: "Cn1cc(Nc2nccc(-c3ccn(C4(CC#N)CN(C(=O)CC#N)C4)n3)n2)cn1"
Result: 1 to 10 µM

Task: Give me measured IC50, please, for this compound: "Cn1cc(Nc2nccc(-c3cnn(C4(CC#N)CN(S(=O)(=O)CCC(F)(F)F)C4)c3)n2)cn1"
Result: 0.1 to 1 µM

Task: Give me measured IC50, please, for this compound: "CCCCS(=O)(=O)N1CC(CC#N)(n2cc(-c3ccnc(Nc4cnn(C)c4)n3)cn2)C1"
Result: 1 to 10 µM

Task: Give me measured IC50, please, for this compound: "Cn1cc(Nc2cc(-c3cnn(C4CN(C(=O)CC(F)(F)F)C4)c3)ccn2)cn1"
Result: ≥ 10 µM

Task: Give me measured IC50, please, for this compound: "Cn1cc(Nc2nccc(-c3cnn(C4(CC#N)CN(S(=O)(=O)CC5CC5)C4)c3)n2)cn1"
Result: 0.1 to 1 µM

Task: Give me measured IC50, please, for this compound: "CCOCCS(=O)(=O)N1CC(CC#N)(n2cc(-c3ccnc(Nc4cnn(C)c4)n3)cn2)C1"
Result: 1 to 10 µM

Task: Give me measured IC50, please, for this compound: "Cn1cc(Nc2nccc(-c3ccn(C4(CC#N)CN(S(=O)(=O)CC(F)(F)F)C4)c3)n2)cn1"
Result: < 0.1 µM

Task: Give me measured IC50, please, for this compound: Cn1cc(Nc2nccc(-c3ccn(C4(CC#N)CN(C(=O)C5CC5(F)F)C4)n3)n2)cn1 (stereo not drawn)
Result: 0.1 to 1 µM

Task: Give me measured IC50, please, for this compound: CCCC(=O)N1CCC(n2cc(-c3ccnc(Nc4cnn(C)c4)n3)cn2)C1 (stereo not drawn)
Result: ≥ 10 µM

Task: Give me measured IC50, please, for this compound: "Cn1cc(Nc2nccc(-c3cnn(C4CCN(C(=O)CC(F)(F)F)CC4)c3)n2)cn1"
Result: ≥ 10 µM

Task: Give me measured IC50, please, for this compound: "C=CCS(=O)(=O)N1CC(CC#N)(n2cc(-c3ccnc(Nc4cnn(C)c4)n3)cn2)C1"
Result: 0.1 to 1 µM

Task: Give me measured IC50, please, for this compound: "Cn1cc(Nc2nccc(-c3ccn(C4(CC#N)CN(S(=O)(=O)CCCF)C4)c3)n2)cn1"
Result: 0.1 to 1 µM

Task: Give me measured IC50, please, for this compound: "Cn1cc(Nc2nccc(-c3cnn(C4CCN(C(=O)CC#N)CC4)c3)n2)cn1"
Result: ≥ 10 µM

Task: Give me measured IC50, please, for this compound: "Cn1cc(Nc2nccc(-c3ccc(C4(CC#N)CN(C(=O)CC#N)C4)cc3)n2)cn1"
Result: 0.1 to 1 µM

Task: Give me measured IC50, please, for this compound: "CCCS(=O)(=O)N1CCC(n2cc(-c3ccnc(Nc4cnn(C)c4)n3)cn2)CC1"
Result: ≥ 10 µM

Task: Give me measured IC50, please, for this compound: "Cn1cc(Nc2nccc(-c3ccn(C4(CC#N)CN(S(=O)(=O)C5CCOCC5)C4)n3)n2)cn1"
Result: 0.1 to 1 µM

Task: Give me measured IC50, please, for this compound: Cn1cc(Nc2nccc(-c3cnn(C4(CC#N)CN(C(=O)C5CC5(F)F)C4)c3)n2)cn1 (stereo not drawn)
Result: 0.1 to 1 µM

Task: Give me measured IC50, please, for this compound: Cn1cc(Nc2nccc(-c3cnn(C4CCN(C(=O)C5CC5(F)F)CC4)c3)n2)cn1 (stereo not drawn)
Result: ≥ 10 µM

Task: Give me measured IC50, please, for this compound: "CN1CCN(c2ccc(-c3ccnc(Nc4cnn(C)c4)n3)cc2)CC1"
Result: 1 to 10 µM

Task: Give me measured IC50, please, for this compound: "CCS(=O)(=O)N1CC(n2cc(-c3ccnc(Nc4cnn(C)c4)c3)cn2)C1"
Result: ≥ 10 µM

Task: Give me measured IC50, please, for this compound: "COCC(=O)N1CC(CC#N)(n2ccc(-c3ccnc(Nc4cnn(C)c4)n3)c2)C1"
Result: 1 to 10 µM

Task: Give me measured IC50, please, for this compound: Cn1cc(Nc2nccc(-c3cnn(C4CCN(C(=O)CC#N)C4)c3)n2)cn1 (stereo not drawn)
Result: ≥ 10 µM

Task: Give me measured IC50, please, for this compound: "Cn1cc(Nc2nccc(-c3ccn(C4(CC#N)CN(C(=O)C5CC5)C4)c3)n2)cn1"
Result: 0.1 to 1 µM

Task: Give me measured IC50, please, for this compound: "Cn1cc(Nc2nccc(-c3cnn(C4(CC#N)CN(C(=O)CC#N)C4)c3)n2)cn1"
Result: 0.1 to 1 µM

Task: Give me measured IC50, please, for this compound: CCC(=O)N1CCC(n2cc(-c3ccnc(Nc4cnn(C)c4)n3)cn2)C1 (stereo not drawn)
Result: ≥ 10 µM

Task: Give me measured IC50, please, for this compound: "Cn1cc(Nc2nccc(-c3ccn(C4(CC#N)CN(C(=O)CC#N)C4)c3)n2)cn1"
Result: 0.1 to 1 µM

Task: Give me measured IC50, please, for this compound: "CCCS(=O)(=O)N1CC(n2cc(-c3ccnc(Nc4cnn(C)c4)c3)cn2)C1"
Result: ≥ 10 µM
